Test system: Staph.
Assay: Range of MIC for Staph. strains, including MRSA
Details: Staphylococcus aureus, MRSA, read-out: Range of MIC, Staph (Water)
quantity_name: MIC

compound_structure: CCCN(CC(=O)Nc1cc(N(C)C)c2c(c1O)C(=O)C1=C(O)[C@]3(O)C(=O)C(C(N)=O)=C(O)[C@@H](N(C)C)[C@@H]3C[C@@H]1C2)C(=O)OCC(C)C
experimental_value: 4 to 8 µg/mL
--
compound_structure: CCCCN(CC(=O)Nc1cc(N(C)C)c2c(c1O)C(=O)C1=C(O)[C@]3(O)C(=O)C(C(N)=O)=C(O)[C@@H](N(C)C)[C@@H]3C[C@@H]1C2)C(=O)OCOC(=O)c1cccs1
experimental_value: 0.5 to 8 µg/mL
--
compound_structure: CN(C)c1cc(NC(=O)CN(C(=O)OCOC(=O)c2ccc(C(=O)c3ccccc3)cc2)C(C)(C)C)c(O)c2c1C[C@H]1C[C@H]3[C@H](N(C)C)C(O)=C(C(N)=O)C(=O)[C@@]3(O)C(O)=C1C2=O
experimental_value: 0.5 to 1 µg/mL
--
compound_structure: CCCN(CC(=O)Nc1cc(N(C)C)c2c(c1O)C(=O)C1=C(O)[C@]3(O)C(=O)C(C(N)=O)=C(O)[C@@H](N(C)C)[C@@H]3C[C@@H]1C2)C(=O)OCOC(=O)C(C)(C)CC
experimental_value: 2 to 4 µg/mL
--
compound_structure: COC(=O)N(CC(=O)Nc1cc(N(C)C)c2c(c1O)C(=O)C1=C(O)[C@]3(O)C(=O)C(C(N)=O)=C(O)[C@@H](N(C)C)[C@@H]3C[C@@H]1C2)C(C)(C)C
experimental_value: 4 to 16 µg/mL

---

Below, each entry is listed alongside its reported MIC.
Test system: E. coli GC 2231
Experiment: MIC, broth microdilution
Conditions: Escherichia coli, GC2231, E. coli GC 2231; Mouse Serum pre-incubation

compound: CCCN(CC(=O)Nc1cc(N(C)C)c2c(c1O)C(=O)C1=C(O)[C@]3(O)C(=O)C(C(N)=O)=C(O)[C@@H](N(C)C)[C@@H]3C[C@@H]1C2)C(=O)OCc1ccccc1 [Example 14]
censoring_operator: >
MIC, µg/mL: 64
//
compound: CCCN(CC(=O)Nc1cc(N(C)C)c2c(c1O)C(=O)C1=C(O)[C@]3(O)C(=O)C(C(N)=O)=C(O)[C@@H](N(C)C)[C@@H]3C[C@@H]1C2)C(=O)OCC [Example 15]
censoring_operator: >
MIC, µg/mL: 64
//
compound: CCCCN(CC(=O)Nc1cc(N(C)C)c2c(c1O)C(=O)C1=C(O)[C@]3(O)C(=O)C(C(N)=O)=C(O)[C@@H](N(C)C)[C@@H]3C[C@@H]1C2)C(=O)OCOC(=O)c1ccc(F)cc1 [Example 4]
censoring_operator: =
MIC, µg/mL: 1
//
compound: CCCCN(CC(=O)Nc1cc(N(C)C)c2c(c1O)C(=O)C1=C(O)[C@]3(O)C(=O)C(C(N)=O)=C(O)[C@@H](N(C)C)[C@@H]3C[C@@H]1C2)C(=O)OCOC(=O)C(C)(C)C [Example 13]
censoring_operator: =
MIC, µg/mL: 2
//
compound: CCCN(CC(=O)Nc1cc(N(C)C)c2c(c1O)C(=O)C1=C(O)[C@]3(O)C(=O)C(C(N)=O)=C(O)[C@@H](N(C)C)[C@@H]3C[C@@H]1C2)C(=O)OCOC(=O)C1CCC1 [Example 7]
censoring_operator: =
MIC, µg/mL: 2
//
compound: CCCN(CC(=O)Nc1cc(N(C)C)c2c(c1O)C(=O)C1=C(O)[C@]3(O)C(=O)C(C(N)=O)=C(O)[C@@H](N(C)C)[C@@H]3C[C@@H]1C2)C(=O)OCOC(=O)c1ccc(C)cc1 [Example 5]
censoring_operator: =
MIC, µg/mL: 2

---

Tested on: E. coli GC 2271
Test: MIC, broth microdilution
Details: Escherichia coli, GC2271, read-out: MINIMAL INHIBITORY CONCENTRATION MIC, Water
quantity_name: MIC

compound_structure: CN(C)c1cc(NC(=O)CN(C(=O)OCOC(=O)C2CCCCC2)C(C)(C)C)c(O)c2c1C[C@H]1C[C@H]3[C@H](N(C)C)C(O)=C(C(N)=O)C(=O)[C@@]3(O)C(O)=C1C2=O
quantity_name: MIC
experimental_value: 32 µg/mL
--
compound_structure: CCC(=O)OCOC(=O)N(CC(=O)Nc1cc(N(C)C)c2c(c1O)C(=O)C1=C(O)[C@]3(O)C(=O)C(C(N)=O)=C(O)[C@@H](N(C)C)[C@@H]3C[C@@H]1C2)C(C)(C)C
quantity_name: MIC
experimental_value: 8 µg/mL
--
compound_structure: CC(C)CC(=O)OCOC(=O)N(CC(=O)Nc1cc(N(C)C)c2c(c1O)C(=O)C1=C(O)[C@]3(O)C(=O)C(C(N)=O)=C(O)[C@@H](N(C)C)[C@@H]3C[C@@H]1C2)C(C)(C)C
quantity_name: MIC
experimental_value: 16 µg/mL
--
compound_structure: CCCCCCC(=O)OCOC(=O)N(CC(=O)Nc1cc(N(C)C)c2c(c1O)C(=O)C1=C(O)[C@]3(O)C(=O)C(C(N)=O)=C(O)[C@@H](N(C)C)[C@@H]3C[C@@H]1C2)C(C)(C)C
quantity_name: MIC
experimental_value: 32 µg/mL

---

Tested on: E. coli GC 2203
Assay: MIC, broth microdilution
Conditions: Escherichia coli, GC2203, read-out: MINIMAL INHIBITORY CONCENTRATION MIC, Human Serum

compound_structure: CC(C)COC(=O)N(CC(=O)Nc1cc(N(C)C)c2c(c1O)C(=O)C1=C(O)[C@]3(O)C(=O)C(C(N)=O)=C(O)[C@@H](N(C)C)[C@@H]3C[C@@H]1C2)C(C)(C)C
subject_of_test: E. coli GC 2203
censoring_operator: >
MIC / µg/mL: 64
//
compound_structure: CCC(=O)OCOC(=O)N(CC(=O)Nc1cc(N(C)C)c2c(c1O)C(=O)C1=C(O)[C@]3(O)C(=O)C(C(N)=O)=C(O)[C@@H](N(C)C)[C@@H]3C[C@@H]1C2)C(C)(C)C
subject_of_test: E. coli GC 2203
censoring_operator: =
MIC / µg/mL: 4
//
compound_structure: CN(C)c1cc(NC(=O)CN(C(=O)OCOC(=O)c2ccc(F)cc2)C(C)(C)C)c(O)c2c1C[C@H]1C[C@H]3[C@H](N(C)C)C(O)=C(C(N)=O)C(=O)[C@@]3(O)C(O)=C1C2=O
subject_of_test: E. coli GC 2203
censoring_operator: =
MIC / µg/mL: 8
//
compound_structure: CCCCOC(=O)N(CC(=O)Nc1cc(N(C)C)c2c(c1O)C(=O)C1=C(O)[C@]3(O)C(=O)C(C(N)=O)=C(O)[C@@H](N(C)C)[C@@H]3C[C@@H]1C2)C(C)(C)C
subject_of_test: E. coli GC 2203
censoring_operator: >
MIC / µg/mL: 64

---

# reported MIC; entries follow
System: E. faecalis GC 4555
Experiment: MIC, broth microdilution
Details: Enterococcus faecalis, GC4555, read-out: MINIMAL INHIBITORY CONCENTRATION MIC, pre-incubated in Water

compound_structure: CN(C)c1cc(NC(=O)CN(C(=O)OCOC(=O)c2ccc(C(C)(C)C)cc2)C(C)(C)C)c(O)c2c1C[C@H]1C[C@H]3[C@H](N(C)C)C(O)=C(C(N)=O)C(=O)[C@@]3(O)C(O)=C1C2=O
MIC [µg/mL]: 32
--
compound_structure: Cc1ccc(C(=O)OCOC(=O)N(CC(=O)Nc2cc(N(C)C)c3c(c2O)C(=O)C2=C(O)[C@]4(O)C(=O)C(C(N)=O)=C(O)[C@@H](N(C)C)[C@@H]4C[C@@H]2C3)C(C)(C)C)cc1
MIC [µg/mL]: 4
--
compound_structure: CN(C)c1cc(NC(=O)CN(C(=O)OCOC(=O)C2CCCC2)C(C)(C)C)c(O)c2c1C[C@H]1C[C@H]3[C@H](N(C)C)C(O)=C(C(N)=O)C(=O)[C@@]3(O)C(O)=C1C2=O
MIC [µg/mL]: 2
--
compound_structure: CN(C)c1cc(NC(=O)CN(C(=O)OCOC(=O)CC(C)(C)C)C(C)(C)C)c(O)c2c1C[C@H]1C[C@H]3[C@H](N(C)C)C(O)=C(C(N)=O)C(=O)[C@@]3(O)C(O)=C1C2=O
MIC [µg/mL]: 4

---

Test system: E. coli GC 4559
Test: MIC, broth microdilution
Settings: Escherichia coli, GC4559, read-out: MINIMAL INHIBITORY CONCENTRATION MIC, pre-incubated in Water
quantity_name: MIC

compound: CCCN(CC(=O)Nc1cc(N(C)C)c2c(c1O)C(=O)C1=C(O)[C@]3(O)C(=O)C(C(N)=O)=C(O)[C@@H](N(C)C)[C@@H]3C[C@@H]1C2)C(=O)OCOC(=O)c1ccc(C(C)(C)C)cc1 [Example 28]
quantity_name: MIC
experimental_value: > 64 µg/mL
--
compound: CCCN(CC(=O)Nc1cc(N(C)C)c2c(c1O)C(=O)C1=C(O)[C@]3(O)C(=O)C(C(N)=O)=C(O)[C@@H](N(C)C)[C@@H]3C[C@@H]1C2)C(=O)OCOC(=O)c1cccs1 [Example 25]
quantity_name: MIC
experimental_value: > 64 µg/mL
--
compound: CCC(C)(C)C(=O)OCOC(=O)N(CC(=O)Nc1cc(N(C)C)c2c(c1O)C(=O)C1=C(O)[C@]3(O)C(=O)C(C(N)=O)=C(O)[C@@H](N(C)C)[C@@H]3C[C@@H]1C2)C(C)(C)C [Example 44]
quantity_name: MIC
experimental_value: > 64 µg/mL
--
compound: CC(C)C(=O)OCOC(=O)N(CC(=O)Nc1cc(N(C)C)c2c(c1O)C(=O)C1=C(O)[C@]3(O)C(=O)C(C(N)=O)=C(O)[C@@H](N(C)C)[C@@H]3C[C@@H]1C2)C(C)(C)C [Example 45]
quantity_name: MIC
experimental_value: 64 µg/mL
